Entries and their measured EC50 follow.
- Test system: Spodoptera litura
- procedure.details: Insecticidal activity against fifth-instar larvae of Spodoptera litura in cabbage leaf disk after 4 to 7 days by leaf dipping method
- Type: functional, organism-based

Illustrative cases are given below, each with its answer.
COc1ccc(NC(=O)c2cccc(I)c2C(=O)NC(C)C)c(C)c1: 30 mgAi/L
Cc1cc(Cl)ccc1NC(=O)c1cccc(F)c1C(=O)NC(C)C: > 500 mgAi/L
Cc1cc(Cl)ccc1NC(=O)c1cccc([N+](=O)[O-])c1C(=O)NC(C)C: 10 mgAi/L

So what's the measured EC50 for this one? `Cc1cc(OC(F)(F)F)ccc1NC(=O)c1cccc(I)c1C(=O)NC(C)C` 1 mgAi/L

Record: `Cc1cc(Cl)ccc1NC(=O)c1cccc(Br)c1C(=O)NC(C)C` 10 mgAi/L

Proceed to `Cc1cc(Cl)ccc1NC(=O)c1cc(Cl)ccc1C(=O)NC(C)C` > 500 mgAi/L

Thanks! And `Cc1ccc(Cl)cc1NC(=O)c1cccc(I)c1C(=O)NC(C)C` ? 10 mgAi/L
